test system: IFNγ stimulated STAT1 phosphorylation on Tyr701 (JAK1/2); assay: JAK1/2 cellular target modulation: IFNγ stimulated phospho-STAT1 in PBMC; format: cell-based; settings: human PBMC, IFNγ 10 ng/ml; read-out: Infγ-STAT1 IC50
pIC50: −log10 of the molar value.
Recorded Endpoint: pIC50

Recorded pIC50 of N#CCC(=O)N1CCC[C@@H](Nc2c(-c3ccn(C(F)F)n3)cnc3[nH]ccc23)C1 [Example 2] , please.
6.00 to 7.00

====

tested on: IFNγ stimulated STAT1 phosphorylation on Tyr701 (JAK1/2); assay: JAK1/2 cellular target modulation: IFNγ stimulated phospho-STAT1 in PBMC; type: cell-based; settings: human PBMC, IFNγ 10 ng/ml; read-out: Infγ-STAT1 IC50
Counter-ions that a name gives are not always drawn.
Recorded measurements of IC50, one per entry

>>> result("CNCCOc1cccc(-c2cnc3[nH]ccc3c2N[C@@H]2CCCN(C(=O)CC#N)C2)n1 [Example 58, hydrochloride]")
"> 1000 nM"

Using the record for CNC(=O)c1cnc(-c2cnc3[nH]ccc3c2N[C@@H]2CCCN(C(=O)CC#N)C2)o1 , report its IC50.
> 1000 nM

I have this molecule here, N#CCC(=O)N1CCC[C@@H](Nc2c(-c3nnco3)cnc3[nH]ccc23)C1 , and I need its recorded IC50.
100 to 1000 nM

Give the measured IC50 of COc1nccc(-c2cnc3[nH]ccc3c2N[C@@H]2CCCN(C(=O)CC#N)C2)n1 .
100 to 1000 nM

Entry Cc1nc(-c2cnc3[nH]ccc3c2N[C@@H]2CCCN(C(=O)CC#N)C2)no1 : reported IC50 = ?
> 1000 nM

Form field: reported IC50 of N#CCC(=O)N1CCC[C@@H](Nc2c(-c3cscn3)cnc3[nH]ccc23)C1
100 to 1000 nM

Query: IC50; subject: N#CCC(=O)N1CCC[C@@H](Nc2c(-c3ccn(CCO)n3)cnc3[nH]ccc23)C1
100 to 1000 nM

Reported IC50, molecule CCOC(=O)c1cnc(-c2cnc3[nH]ccc3c2N[C@@H]2CCCN(C(=O)CC#N)C2)s1 : ____
100 to 1000 nM

====

tested on: IFNγ stimulated STAT1 phosphorylation on Tyr701 (JAK1/2); assay: JAK1/2 cellular target modulation: IFNγ stimulated phospho-STAT1 in PBMC; type: cell-based; settings: human PBMC, IFNγ 10 ng/ml; read-out: Infγ-STAT1 IC50
pIC50: −log10 of the molar value.
Reported pIC50 by item:

// worked examples, pIC50 included
>>> result("C[C@H]1C[C@@H](Nc2c(-c3ccn(C(F)F)n3)cnc3[nH]ccc23)CN(C(=O)CC#N)C1")
"≥ 7.00"
>>> result("C[C@H]1C[C@@H](Nc2c(-c3nccs3)cnc3[nH]ccc23)CN(CC2CC2(F)F)C1 (stereo partly shown)")
"6.00 to 7.00"
>>> result("O[C@H]1CC[C@@H](Nc2c(-c3ccccn3)cnc3[nH]ccc23)C1")
"< 6.00"
>>> result("C[C@H]1C[C@@H](Nc2c(-c3cccc(CO)n3)cnc3[nH]ccc23)CN(C(=O)CC#N)C1")
"≥ 7.00"
>>> result("N#CCC(=O)N1CCC[C@@H](Nc2c(-c3ccccn3)cnc3[nH]ccc23)C1")
"6.00 to 7.00"
>>> result("N#CCC(=O)N1CCC[C@@H](Nc2c(-c3nc(C(N)=O)co3)cnc3[nH]ccc23)C1")
"< 6.00"

Next compound, please.
Item: Cc1cc(-c2cnc3[nH]ccc3c2N[C@@H]2CCCN(C(=O)CC#N)C2)[nH]n1 Test system: IFNγ stimulated STAT1 phosphorylation on Tyr701 (JAK1/2) Read-out: pIC50 Value: ?
6.00 to 7.00

Origin of the recorded values: patent US11420966B2
